Study system: Adenosine receptor A1 (Homo sapiens, UniProt P30542)
Sequence (P30542 whole entry): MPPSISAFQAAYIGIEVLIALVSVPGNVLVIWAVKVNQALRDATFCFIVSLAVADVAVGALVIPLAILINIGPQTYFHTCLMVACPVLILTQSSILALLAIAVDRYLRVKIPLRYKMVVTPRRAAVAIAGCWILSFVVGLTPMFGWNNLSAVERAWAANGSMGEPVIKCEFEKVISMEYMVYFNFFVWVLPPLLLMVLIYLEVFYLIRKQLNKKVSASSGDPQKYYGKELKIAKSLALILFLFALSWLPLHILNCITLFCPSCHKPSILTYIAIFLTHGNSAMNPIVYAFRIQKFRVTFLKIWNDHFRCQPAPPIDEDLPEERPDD
Test description: Displacement of [3H]CCPA from recombinant human A1 adenosine receptor expressed in CHO cell membranes measured after 90 mins in presence of adenosine deaminase by liquid scintillation counting method
Metric name: Ki

The reported Ki of the compound `CCCn1c(=O)[nH]c2nc(-c3ccc(S(=O)(=O)N4CCN(c5ccc(O)c(Cl)c5)CC4)cc3)[nH]c2c1=O` was > 1 µM

# Ki of `CCCn1c(=O)[nH]c2nc(-c3ccc(S(=O)(=O)N4CCN(c5ccc(O)cc5)CC4)cc3)[nH]c2c1=O` = 0.356 µM

Memo: `CCCn1c(=O)[nH]c2nc(-c3ccc(S(=O)(=O)N(C)CCc4ccccc4)cc3)[nH]c2c1=O` , reported Ki: 1.04 µM

`CCCn1c(=O)[nH]c2nc(-c3ccc(S(=O)(=O)N4CCN(c5cccc(F)c5)CC4)cc3)[nH]c2c1=O` has a reported Ki of > 1 µM

Short answer for `CCCn1c(=O)[nH]c2nc(-c3ccc(S(=O)(=O)N4CCN(Cc5ccc(Br)cc5)CC4)cc3)[nH]c2c1=O` : Ki was > 1 µM

Memo: `CCCn1c(=O)[nH]c2nc(-c3ccc(S(=O)(=O)N4CCN(c5ccc(I)cc5)CC4)cc3)[nH]c2c1=O` , reported Ki: > 1 µM

Field Ki (entry `CCCn1c(=O)[nH]c2nc(-c3ccc(S(=O)(=O)N4CCN(c5ccc(OC)c(F)c5)CC4)cc3)[nH]c2c1=O` ) reads > 1 µM

Given item `CCCn1c(=O)[nH]c2nc(-c3ccc(S(=O)(=O)N4CCN(c5ccccc5C)CC4)cc3)[nH]c2c1=O` , the value recorded as its Ki is 0.419 µM

// field: Ki; key: `CCCn1c(=O)[nH]c2nc(-c3ccc(S(=O)(=O)N4CCN(Cc5ccc(F)c(OC)c5)CC4)cc3)[nH]c2c1=O` ; value = > 1 µM

For `CCCn1c(=O)[nH]c2nc(-c3ccc(S(=O)(=O)N4CCN(Cc5cccc(C)c5)CC4)cc3)[nH]c2c1=O` the compound record lists Ki as 0.795 µM

Sure, the documented Ki for `CCCn1c(=O)c2[nH]c(-c3ccc(S(=O)(=O)N4CCN(c5ccc(Cl)cc5)CC4)cc3)nc2n(CC)c1=O` is > 1 µM

// Ki value for `CCCn1c(=O)[nH]c2nc(-c3ccc(S(=O)(=O)N4CCN(c5ccc(OC)c(Cl)c5)CC4)cc3)[nH]c2c1=O` : > 1 µM

The compound listed as `CCCn1c(=O)[nH]c2nc(-c3ccc(S(=O)(=O)N4CCN(Cc5ccc(OC)c(F)c5)CC4)cc3)[nH]c2c1=O` shows Ki equal to > 1 µM

Hey, just so you know, these numbers are from ChEMBL document CHEMBL4346653.
